Hello, the source for this data is patent US20070203098A1, in case you need it.

molecular target: PTEN (Homo sapiens, UniProt P60484); experiment: PTEN Inhibition Assay: General Screening; type: biochemical; details: read-out: % Inhibition @ 250 uM
Sequence (P60484 whole entry, species assumed): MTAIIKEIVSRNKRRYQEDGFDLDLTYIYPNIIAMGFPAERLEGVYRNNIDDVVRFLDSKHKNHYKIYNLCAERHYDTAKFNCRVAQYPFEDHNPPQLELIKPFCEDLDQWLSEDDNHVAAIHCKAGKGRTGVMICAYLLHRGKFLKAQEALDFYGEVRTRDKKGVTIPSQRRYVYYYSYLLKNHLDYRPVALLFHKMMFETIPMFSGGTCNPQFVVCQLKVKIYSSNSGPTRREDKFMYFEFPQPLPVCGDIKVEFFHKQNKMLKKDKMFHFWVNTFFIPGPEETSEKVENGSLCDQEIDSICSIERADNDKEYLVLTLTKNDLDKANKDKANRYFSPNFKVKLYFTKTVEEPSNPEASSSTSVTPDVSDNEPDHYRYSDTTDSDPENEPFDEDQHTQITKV
ASSAY METRIC: inhibition at 250 µM (%)
Give bare numbers, in %.

Need inhibition at 250 µM for each of these molecules.
1. CCOC(=O)c1cccc(OCC(=O)Nc2ccc3c(c2)C(=O)C(=O)c2ccccc2-3)c1 [SF1811-000]
2. CC(C)(C)C(=O)Nc1ccc2c(c1)C(=O)C(=O)c1ccccc1-2 [SF1670-000]
3. CC(C)(C)c1ccc(S(=O)(=O)Nc2ccc3c(c2)C(=O)C(=O)c2ccccc2-3)cc1 [SF1780-000]
4. O=C1C(=O)c2cc(NCc3ccccc3)ccc2-c2ccccc21 [SF1800-000]
5. O=C(COc1ccccc1[N+](=O)[O-])Nc1ccc2c(c1)C(=O)C(=O)c1ccccc1-2 [SF1796-000]

[98.6, 100, 98, 98, 99]
